tgt: NK1 receptor (substance P receptor) (Homo sapiens, UniProt P25103)
Sequence (P25103 whole entry): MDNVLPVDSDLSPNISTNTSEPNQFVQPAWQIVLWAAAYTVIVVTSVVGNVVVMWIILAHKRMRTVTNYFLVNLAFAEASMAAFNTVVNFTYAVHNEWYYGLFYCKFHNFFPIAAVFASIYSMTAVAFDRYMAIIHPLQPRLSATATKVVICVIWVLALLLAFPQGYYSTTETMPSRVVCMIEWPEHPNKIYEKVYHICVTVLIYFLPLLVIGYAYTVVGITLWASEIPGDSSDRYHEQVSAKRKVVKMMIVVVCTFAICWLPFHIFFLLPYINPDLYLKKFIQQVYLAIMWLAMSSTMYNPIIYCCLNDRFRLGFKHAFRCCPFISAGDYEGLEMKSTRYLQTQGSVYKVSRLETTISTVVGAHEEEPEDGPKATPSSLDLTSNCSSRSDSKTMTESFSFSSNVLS
pKi: −log10 of the molar value. Structures can show the parent of a compound that is named as a salt.
Short version: pKi at least 9 is Criterion met, less is Criterion not met.

Consider the worked cases shown below.
CN(CCc1cc(C(F)(F)F)cc(C(F)(F)F)c1)C(=O)C(c1ccccc1)N1CCN(C(=N)N)CC1 (racemic) [Example 1, dihydrochloride]: Criterion met
Cc1ccc(/N=C(\Nc2ccc(C)cc2)N2CCN(C(C(=O)N(C)CCc3cc(C(F)(F)F)cc(C(F)(F)F)c3)c3ccccc3)CC2)cc1 (stereo not drawn) [Example 28]: Criterion not met
CC(C)/N=C(/NC(C)C)N1CCN(C(C(=O)N(C)CCc2cc(C(F)(F)F)cc(C(F)(F)F)c2)c2ccccc2)CC1 (racemic) [Example 4]: Criterion met
CN(CCc1cc(C(F)(F)F)cc(C(F)(F)F)c1)C(=O)C(c1ccccc1)N1CCN(C2=NCCN2)CC1 (stereo not drawn) [Example 2]: Criterion met

# ---- query compound ----
### Prompt In plain terms: is recorded pKi at least 9 for CN(CCc1cc(C(F)(F)F)cc(C(F)(F)F)c1)C(=O)C(c1ccccc1)N1CCN(C(=N)Nc2ccccc2)CC1 (stereo not drawn) [Example 12] ?
### Response Criterion met
